Biological target: CETP (Homo sapiens)
Sequence (P11597 18-493): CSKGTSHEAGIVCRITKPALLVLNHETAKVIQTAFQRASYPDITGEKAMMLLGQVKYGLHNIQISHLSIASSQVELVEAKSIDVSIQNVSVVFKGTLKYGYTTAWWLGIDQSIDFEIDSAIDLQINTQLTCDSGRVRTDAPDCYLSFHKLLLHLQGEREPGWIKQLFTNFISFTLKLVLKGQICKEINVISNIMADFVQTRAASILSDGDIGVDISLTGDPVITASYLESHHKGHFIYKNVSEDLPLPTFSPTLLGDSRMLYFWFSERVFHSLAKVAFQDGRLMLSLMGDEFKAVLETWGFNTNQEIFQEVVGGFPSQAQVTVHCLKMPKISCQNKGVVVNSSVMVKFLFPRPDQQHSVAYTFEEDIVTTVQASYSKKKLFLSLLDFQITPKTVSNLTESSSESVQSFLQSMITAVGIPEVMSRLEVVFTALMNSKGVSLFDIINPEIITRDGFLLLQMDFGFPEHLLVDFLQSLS
Assay: Assay of CETP Inhibition using Purified Components (Reconstituted Buffer Assay)
Type: biochemical
Set-up: made in house; host or cells: CHO cells (serum-free conditioned medium)
Settings: Inhibition of CETP activity in reconstituted buffer assay; transfer of [3H]CE from HDL to LDL; read-out: IC50
Under this convention, Condition met denotes IC50 strictly below 4000 nM and Condition not met denotes IC50 at or above 4000 nM.

                                   compound     target_or_system              label
0  OC(CN(Cc1cccc(OC(F)(F)C(F)F)c1)c1cccc(Sc2ccncc2)c1)C(F)(F)F (stereo not shown)  CETP (Homo sapiens)  Condition not met
1  OC(CN(Cc1cccc(C(F)(F)F)c1)c1ccccc1)C(F)(F)F (stereo not shown)  CETP (Homo sapiens)  Condition not met
2  Cc1ccc(N(CCC#N)c2cccc(N(Cc3cccc(OC(F)(F)C(F)F)c3)CC(O)C(F)(F)F)c2)cc1 (stereo not shown)  CETP (Homo sapiens)  Condition not met
3  COc1c(Cl)cc(-c2cccc(N(Cc3cccc(OC(F)(F)C(F)F)c3)CC(O)C(F)(F)F)c2)cc1Cl (stereo not shown)  CETP (Homo sapiens)      Condition met
4  OC(CN(Cc1cccc(OC(F)(F)C(F)F)c1)c1cccc(Cc2ccc(F)c(Cl)c2)c1)C(F)(F)F (stereo not shown)  CETP (Homo sapiens)      Condition met
5  OC(CN(Cc1cccc(OC(F)(F)C(F)F)c1)c1cccc(Oc2cc(Br)ccc2F)c1)C(F)(F)F (stereo not shown)  CETP (Homo sapiens)      Condition met
6  OC(CN(Cc1cccc(Oc2ccccc2)c1)c1ccc(Oc2ccc(Cl)cc2)cc1)C(F)(F)F (stereo not shown)  CETP (Homo sapiens)  Condition not met
7  OC(CN(Cc1cccc(C(F)(F)F)c1)c1cccc(OC(F)(F)F)c1)C(F)(F)F (stereo not shown)  CETP (Homo sapiens)      Condition met
8  N#Cc1ccc(COc2cccc(N(Cc3cccc(OC(F)(F)C(F)F)c3)CC(O)C(F)(F)F)c2)cc1 (stereo not shown)  CETP (Homo sapiens)      Condition met
9  Cc1ccc(CN(CC(O)C(F)(F)F)c2cccc(Oc3ccccc3)c2)cc1-c1ccco1 (stereo not shown)  CETP (Homo sapiens)  Condition not met

Task: Bench note: check whether OC(CN(Cc1cccc(OC(F)(F)C(F)F)c1)c1cccc(OCc2ccc(SC(F)(F)F)cc2)c1)C(F)(F)F (stereo not shown) shows IC50 below 4000 nM
Result: Condition met

Task: Bench note: check whether O=C(c1cccc(N(Cc2cccc(OC(F)(F)C(F)F)c2)CC(O)C(F)(F)F)c1)C1CCCC1 (stereo not shown) shows IC50 below 4000 nM
Result: Condition met

Task: Bench note: check whether OC(CN(Cc1ccc(F)cc1)Cc1ccc(C(F)(F)F)cc1)C(F)(F)F (stereo not shown) shows IC50 below 4000 nM
Result: Condition not met

Task: Bench note: check whether O=C(COc1cccc(N(Cc2cccc(OC(F)(F)C(F)F)c2)CC(O)C(F)(F)F)c1)c1ccccc1 (stereo not shown) shows IC50 below 4000 nM
Result: Condition met

Task: Bench note: check whether OC(CN(Cc1cccc(C(F)(F)F)c1)c1ccc(C#Cc2ccccc2)c(C(F)(F)F)c1)C(F)(F)F (stereo not shown) shows IC50 below 4000 nM
Result: Condition met
